Molecular target: T1, human CD276 protein (human, UniProt Q5ZPR3 29-534)
T1 construct: whole, on cells; for SKOV3 and the other cancer lines the protein is the cells' own; also called B7-H3; B7H3
T1 sequence (looked up): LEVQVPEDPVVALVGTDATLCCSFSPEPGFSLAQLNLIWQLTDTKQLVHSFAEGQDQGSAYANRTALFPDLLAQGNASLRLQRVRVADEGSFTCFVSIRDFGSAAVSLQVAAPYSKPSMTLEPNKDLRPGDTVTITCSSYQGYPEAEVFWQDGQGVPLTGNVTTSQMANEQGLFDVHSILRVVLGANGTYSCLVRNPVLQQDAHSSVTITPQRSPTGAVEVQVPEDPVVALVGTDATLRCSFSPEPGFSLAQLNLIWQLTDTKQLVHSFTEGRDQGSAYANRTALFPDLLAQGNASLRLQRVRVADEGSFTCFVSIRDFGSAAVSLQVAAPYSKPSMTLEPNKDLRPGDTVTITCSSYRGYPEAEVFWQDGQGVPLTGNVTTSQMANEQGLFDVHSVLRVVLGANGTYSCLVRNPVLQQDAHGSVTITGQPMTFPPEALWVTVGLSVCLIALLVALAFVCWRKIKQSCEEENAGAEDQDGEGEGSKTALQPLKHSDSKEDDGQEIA
Assay: FACS on CHO-S-hCD276 cells
Catalogue of FACS MFI values

BINDER	FACS MFI
24-C10-F9-G7 (antibody, V domains shown, mouse monoclonal antibody (hybridoma)) VH: EVQLQESGPELVRPGVSVKISCKGSGYTFTDHTMHWVKESHAQSLEWIGVISTYYGNTNYNQNFKGKATLTVDKSSSTAYMELAGLTSEDSAIYYCARASYGSGYGPYYWYFDVWGAGTTVTVSS VL: DIQMTQSPASLFASVGETVTITCRASEKIYSYLAWYFQKQGKSPQFLVYNANALAEGVPSRFSGSGSGTQFSLKINSLQPEDFGTYYCQHHYGTPVTFGAGSKLELK	85100
2-A7-B10-A3 (antibody, V domains shown, mouse monoclonal antibody (hybridoma)) VH: QVQLQQSGAELVRPGVSVKISCKGSGYTFTDYAMHWVKQSHAKSLEWIGVINTNYVNTSYNQKFKGKATMTVDKSSSTAFMELARLTSEDSAIYYCARGGKYGNYVFFFAYWGQGTLVTVSA VL: DIQMTQTTSSLSASLGDRVTISCRASQDISNYLNWYQQKPDGTVKLLIYYTSRLHSGVPSRFSGSGSGTDYSLTISNLEQEDIATYFCQQGNTLPYTFGGGTKLEIK	58900
25-D3-G4-C6 (antibody, V domains shown, mouse monoclonal antibody (hybridoma)) VH: EIQLQQTGPELVKPGASVKISCKASGYSFTDYIILWVKQSHGMSLEWIGNINPYYNSTYYNLKFKGKATLTVDKSSSTAYMQLDSLTSEDSAVYYCARDSFDWYFGVWGAGTTVTVSS VL: DVVMTQTPLSLPVSLGDQASISCRSSQSLVHSNGNTYLHWYLQKPGQSPKLLIYKVSNRFSGVPDRFSGSGSGTDFTLKISRVETEDLGIYFCSQSTHVPPLTFGAGTKLELK	5940
